System Tested: Serine/threonine-protein kinase mTOR (Mus musculus)
Experiment Description: Inhibition of mTOR in mouse TSC1-/- MEF cells assessed as inhibition of S6 Ser240/244 phosphorylation incubated for 2 hrs by fluorescence based assay
Format: cell-based
Exam item: assign TRUE to entries whose IC50 is below 0.3 nM and FALSE to entries at or above 0.3 nM. Note that a value of exactly 0.3 nM receives FALSE.

Threshold test, IC50 < 0.3 nM: CO[C@@H]1C[C@H](C[C@@H](C)[C@@H]2CC[C@H](C)/C=C(\C)[C@@H](O)[C@@H](OC)C(=O)[C@H](C)C[C@H](C)/C=C/C=C/C=C(\C)C(N3CCN(CCO)C3=O)C[C@@H]3CC[C@@H](C)[C@@](O)(O3)C(=O)C(=O)N3CCCC[C@H]3C(=O)O2)CC[C@H]1O (stereo not given in full) FALSE

Please check: IC50 for CO[C@@H]1C[C@H](C[C@@H](C)[C@@H]2CC[C@H](C)/C=C(\C)[C@@H](O)[C@@H](OC)C(=O)[C@H](C)C[C@H](C)/C=C/C=C/C=C(\C)C(N3CCCS3(=O)=O)C[C@@H]3CC[C@@H](C)[C@@](O)(O3)C(=O)C(=O)N3CCCC[C@H]3C(=O)O2)CC[C@H]1OP(C)(C)=O (stereo not given in full) , strictly under 0.3 nM or not? FALSE

Decide: IC50 of CO[C@@H]1C[C@H](C[C@@H](C)[C@@H]2CC[C@H](C)/C=C(\C)[C@@H](O)[C@@H](OC)C(=O)[C@H](C)C[C@H](C)/C=C/C=C/C=C(\C)[C@H](N3CCCS3(=O)=O)C[C@@H]3CC[C@@H](C)[C@@](O)(O3)C(=O)C(=O)N3CCCC[C@H]3C(=O)O2)CC[C@H]1O strictly below 0.3 nM? TRUE

Input CO[C@@H]1C[C@H](C[C@@H](C)[C@@H]2CC[C@H](C)/C=C(\C)[C@@H](O)[C@@H](OC)C(=O)[C@H](C)C[C@H](C)/C=C/C=C/C=C(\C)C(N3CCS3(=O)=O)C[C@@H]3CC[C@@H](C)[C@@](O)(O3)C(=O)C(=O)N3CCCC[C@H]3C(=O)O2)CC[C@@H]1n1cnnn1 (stereo not given in full) ; condition: IC50 strictly below 0.3 nM. Does it hold? FALSE

Lab log: compare recorded IC50 with 0.3 nM; is it strictly lower for CO[C@@H]1C[C@H](C[C@@H](C)[C@@H]2CC[C@H](C)/C=C(\C)[C@@H](O)[C@@H](OC)C(=O)[C@H](C)C[C@H](C)/C=C/C=C/C=C(\C)C(N3CCS3(=O)=O)C[C@@H]3CC[C@@H](C)[C@@](O)(O3)C(=O)C(=O)N3CCCC[C@H]3C(=O)O2)CC[C@H]1O (stereo not given in full) ? TRUE
